Where do these numbers come from? They come from patent US7022716B2.

- assayed target: human β3 adrenergic receptor (Homo sapiens, UniProt P13945)
- Construct: Full length β3 AR clones (402 amino acids) containing the last 6 amino acids of hβ3-AR are prepared; expressed in transfected cells; host or cells: CHO (Chinese hamster ovary) cells
- Sequence (P13945 whole entry): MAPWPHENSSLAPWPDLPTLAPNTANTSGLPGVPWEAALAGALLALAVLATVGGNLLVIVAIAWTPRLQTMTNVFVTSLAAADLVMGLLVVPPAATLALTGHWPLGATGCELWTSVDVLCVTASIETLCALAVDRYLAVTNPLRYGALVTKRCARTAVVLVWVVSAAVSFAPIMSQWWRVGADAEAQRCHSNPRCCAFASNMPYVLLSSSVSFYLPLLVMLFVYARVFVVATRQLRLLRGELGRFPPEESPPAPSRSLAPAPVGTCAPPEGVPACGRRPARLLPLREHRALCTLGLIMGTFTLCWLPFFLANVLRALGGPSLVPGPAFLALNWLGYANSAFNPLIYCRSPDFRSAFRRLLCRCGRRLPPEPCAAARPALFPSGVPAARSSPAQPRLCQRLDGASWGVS
- test method notes: cAMP (SPA) response in CHO cells transfected with human β3 adrenergic receptor
- Format: cell-based
- Set-up: key: fraction of maximal isoproterenol (10^-5 M) response
- protocol conditions: maximal response relative to maximal response of isoproterenol at 10^-5 M
# IA(β3) per record follows
Enter the number alone.

stdin: Any idea what IA(β3) was measured for CC(=O)Nc1ccc(S(=O)(=O)Nc2ccc(N3CCC(NC[C@H](O)c4ccc(O)c(NS(C)(=O)=O)c4)CC3)cc2)cc1 [Example 291] ?
stdout: 1.07

stdin: Any idea what IA(β3) was measured for O=C(Nc1ccc(N2CCC(NC[C@H](O)COc3cccc4[nH]c5ccccc5c34)CC2)cc1)c1ccc2c(c1)OCO2 [Example 391] ?
stdout: 0.81

stdin: Any idea what IA(β3) was measured for CCCCc1ccc(S(=O)(=O)Nc2ccc(N3CCC(NC[C@H](O)COc4cccc5[nH]c(=O)[nH]c45)CC3)cc2)cc1 [Example 332] ?
stdout: 1.1
